Listed next: entries and their corresponding pIC50.
targetOrTestSystem: human NOX1 (hNOX1) (Homo sapiens, UniProt Q9Y5S8)
Construct: pLV-CMV-hNOX1-puro (NM_007052.5)
Sequence (Q9Y5S8 whole entry, one chain of several): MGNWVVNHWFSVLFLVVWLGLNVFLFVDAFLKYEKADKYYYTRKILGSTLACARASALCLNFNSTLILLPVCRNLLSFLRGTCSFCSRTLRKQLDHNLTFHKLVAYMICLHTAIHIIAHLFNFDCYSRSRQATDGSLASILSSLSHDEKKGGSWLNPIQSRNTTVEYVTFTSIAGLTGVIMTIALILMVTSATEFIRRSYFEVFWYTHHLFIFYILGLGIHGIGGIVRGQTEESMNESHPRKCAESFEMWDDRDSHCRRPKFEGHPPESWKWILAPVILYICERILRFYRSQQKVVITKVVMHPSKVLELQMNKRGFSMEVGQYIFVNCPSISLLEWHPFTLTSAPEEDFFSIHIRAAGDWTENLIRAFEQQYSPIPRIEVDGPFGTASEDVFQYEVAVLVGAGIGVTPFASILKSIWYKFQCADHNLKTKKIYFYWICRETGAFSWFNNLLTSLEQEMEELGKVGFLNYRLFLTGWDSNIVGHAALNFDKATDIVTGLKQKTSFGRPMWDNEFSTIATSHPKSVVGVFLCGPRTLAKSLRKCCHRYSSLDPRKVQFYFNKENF
experimentNotes: NOX1 inhibition assay (L-012), HEK293 cells stably overexpressing human NOX1
condition: HEK293-hNOX1, PMA stimulated
pIC50: −log10 of the molar value.
observable: pIC50

                                   compound                        targetortestsystem  observable  relationsymbol  observed
0  Cc1cc(F)cc(C)c1CSc1nc2ncsc2c(=O)n1-c1ccc(O)nc1 [Example 24]  human NOX1 (hNOX1) (Homo sapiens, UniProt Q9Y5S8)       pIC50               =      4.69
1  Cc1cc(Cl)ccc1CSc1nc2ncsc2c(=O)n1-c1ccc(O)nc1 [Example 23]  human NOX1 (hNOX1) (Homo sapiens, UniProt Q9Y5S8)       pIC50               =      4.32
2  O=c1c2scnc2nc(SCc2ccc(Cl)cc2F)n1-c1cnc(O)c(F)c1 [Example 35]  human NOX1 (hNOX1) (Homo sapiens, UniProt Q9Y5S8)       pIC50               <      4.00
3  O=c1c2scnc2nc(SCc2c(F)cc(F)cc2F)n1-c1cc(F)c(O)cc1F [Example 10]  human NOX1 (hNOX1) (Homo sapiens, UniProt Q9Y5S8)       pIC50               =      6.30
4  O=c1c2scnc2nc(SCc2c(F)cc(F)cc2Cl)n1-c1cnc(O)c(F)c1 [Example 41]  human NOX1 (hNOX1) (Homo sapiens, UniProt Q9Y5S8)       pIC50               =      5.01

###

Reported pIC50 values for a set of compounds
targetOrTestSystem: human NOX4 (hNOX4) (Homo sapiens)
Sequence (Q9NPH5 whole entry): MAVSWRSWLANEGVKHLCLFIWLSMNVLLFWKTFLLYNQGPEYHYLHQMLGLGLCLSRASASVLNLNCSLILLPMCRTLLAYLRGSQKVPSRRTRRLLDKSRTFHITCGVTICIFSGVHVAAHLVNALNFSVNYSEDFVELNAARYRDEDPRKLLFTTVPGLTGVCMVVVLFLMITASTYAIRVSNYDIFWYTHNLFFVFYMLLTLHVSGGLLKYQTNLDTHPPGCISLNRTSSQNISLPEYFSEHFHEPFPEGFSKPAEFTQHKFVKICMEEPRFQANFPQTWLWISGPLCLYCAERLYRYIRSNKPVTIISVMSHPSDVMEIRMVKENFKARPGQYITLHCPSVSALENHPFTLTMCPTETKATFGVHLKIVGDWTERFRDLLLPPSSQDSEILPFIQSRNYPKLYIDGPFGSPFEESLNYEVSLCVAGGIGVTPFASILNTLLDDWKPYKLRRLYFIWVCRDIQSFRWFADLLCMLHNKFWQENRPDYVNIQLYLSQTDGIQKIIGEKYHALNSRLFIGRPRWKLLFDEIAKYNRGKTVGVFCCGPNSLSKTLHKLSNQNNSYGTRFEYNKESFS
Sequence (P13498 2-195 partner limits assumed): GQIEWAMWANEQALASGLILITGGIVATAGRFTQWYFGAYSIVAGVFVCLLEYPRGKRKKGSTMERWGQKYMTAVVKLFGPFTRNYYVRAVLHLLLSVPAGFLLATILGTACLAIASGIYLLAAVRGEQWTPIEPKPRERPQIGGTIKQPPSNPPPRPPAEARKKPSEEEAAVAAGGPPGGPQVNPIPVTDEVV
pIC50: −log10 of the molar value.
observable: pIC50

>>> df
                                    compound                 targetortestsystem  observed
 0  O=c1c2scnc2nc(SCc2ccc(Br)cc2F)n1-c1cnc(O)c(F)c1  human NOX4 (hNOX4) (Homo sapiens)      7.54
 1  Cc1cc(F)ccc1CSc1nc2ncsc2c(=O)n1-c1cnc(O)nc1  human NOX4 (hNOX4) (Homo sapiens)      6.85
 2  O=c1c2scnc2nc(SCc2c(F)cc(F)cc2F)n1-c1c(F)cc(O)cc1F  human NOX4 (hNOX4) (Homo sapiens)      7.21
 3  O=c1c2scnc2nc(SCc2ccc(C(F)(F)F)cc2)n1-c1cnc(O)c(F)c1  human NOX4 (hNOX4) (Homo sapiens)      7.40
 4  O=c1c2scnc2nc(SCc2ccc(Cl)cc2)n1-c1cc(F)c(O)c(F)c1  human NOX4 (hNOX4) (Homo sapiens)      7.62
 5  O=c1c2scnc2nc(SCc2ccc(C(F)(F)F)cc2Cl)n1-c1cnc(O)c(F)c1  human NOX4 (hNOX4) (Homo sapiens)      6.89
 6  O=c1c2scnc2nc(SCc2ccc(C(F)(F)F)cc2)n1-c1cc(F)c(O)c(F)c1  human NOX4 (hNOX4) (Homo sapiens)      7.11
 7  O=c1c2scnc2nc(SCc2ccc(C(F)(F)F)cc2)n1-c1ccc(O)nn1  human NOX4 (hNOX4) (Homo sapiens)      6.86
 8  O=c1c2scnc2nc(SCc2c(F)cc(F)cc2F)n1-c1cc(F)c(O)cn1  human NOX4 (hNOX4) (Homo sapiens)      6.90
 9  O=c1c2scnc2nc(SCc2ccc(Cl)cc2)n1-c1cnc(O)nc1  human NOX4 (hNOX4) (Homo sapiens)      6.82
10  O=c1c2scnc2nc(SCc2c(F)cc(F)cc2F)n1-c1cc(F)c(O)c(F)c1  human NOX4 (hNOX4) (Homo sapiens)      7.37
11  O=c1c2scnc2nc(SCc2ccc(Cl)cc2)n1-c1cccnc1 [reference compound]  human NOX4 (hNOX4) (Homo sapiens)      5.26
12  O=c1c2scnc2nc(SCc2c(F)cc(F)cc2F)n1-c1ccc(O)nn1  human NOX4 (hNOX4) (Homo sapiens)      6.78
13  O=c1c2scnc2nc(SCc2c(F)cc(F)cc2F)n1-c1cncc(F)c1 [reference compound]  human NOX4 (hNOX4) (Homo sapiens)      5.78
14  Cc1cc(F)cc(C)c1CSc1nc2ncsc2c(=O)n1-c1ccc(O)nn1  human NOX4 (hNOX4) (Homo sapiens)      6.90
15  Cc1cc(Cl)ccc1CSc1nc2ncsc2c(=O)n1-c1cnc(O)nc1  human NOX4 (hNOX4) (Homo sapiens)      6.95
16  O=c1c2scnc2nc(SCc2ccc(C(F)(F)F)cc2F)n1-c1cnc(O)nc1  human NOX4 (hNOX4) (Homo sapiens)      6.91
17  O=c1c2scnc2nc(SCc2c(F)cc(F)cc2F)n1-c1cnc(O)c(F)c1  human NOX4 (hNOX4) (Homo sapiens)      7.22

###

targetOrTestSystem: human NOX3 (hNOX3) (Homo sapiens, UniProt Q9HBY0)
Construct: pLV-CMV-hNOX3-puro (NM_015718.3)
Sequence (Q9HBY0 whole entry): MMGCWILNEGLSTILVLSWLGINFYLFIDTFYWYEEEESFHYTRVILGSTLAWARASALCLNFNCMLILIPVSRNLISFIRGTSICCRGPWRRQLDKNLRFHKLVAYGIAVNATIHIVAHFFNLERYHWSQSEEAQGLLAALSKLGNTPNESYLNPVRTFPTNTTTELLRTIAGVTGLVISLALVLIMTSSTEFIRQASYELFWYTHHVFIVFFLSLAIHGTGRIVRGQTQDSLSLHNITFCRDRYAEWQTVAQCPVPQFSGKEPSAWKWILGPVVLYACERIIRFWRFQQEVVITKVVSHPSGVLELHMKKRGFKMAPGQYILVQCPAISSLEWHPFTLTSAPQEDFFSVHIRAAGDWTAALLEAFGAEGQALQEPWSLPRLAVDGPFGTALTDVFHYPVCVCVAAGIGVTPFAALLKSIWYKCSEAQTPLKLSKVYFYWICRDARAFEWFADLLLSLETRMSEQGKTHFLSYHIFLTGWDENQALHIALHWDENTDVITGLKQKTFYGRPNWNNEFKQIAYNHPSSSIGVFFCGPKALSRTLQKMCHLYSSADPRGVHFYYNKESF
Sequence (P13498 2-195 partner limits assumed): as the sequence (P13498 2-195 partner limits assumed) above
experimentNotes: NOX3 inhibition assay (L-012), HEK293 cells stably overexpressing human NOX3
condition: HEK293-hNOX3, PMA stimulated
Reported values of IC50 for individual entries
observable: IC50 (µM)

>>> df
                           structurenotation  endpointunit  relationsymbol  observed
 0  Cc1cc(Cl)ccc1CSc1nc2ncsc2c(=O)n1-c1ccc(O)nc1            µM               >       100
 1  O=c1c2scnc2nc(SCc2c(F)cc(F)cc2Cl)n1-c1cnc(O)c(F)c1            µM               =      32.3
 2  N#Cc1cc(-n2c(SCc3c(F)cc(F)cc3F)nc3ncsc3c2=O)ccc1O            µM               =       0.4
 3  Cc1c(F)cccc1CSc1nc2ncsc2c(=O)n1-c1cnc(O)c(F)c1            µM               =      39.2
 4  O=c1c2scnc2nc(SCc2ccc(Cl)cc2F)n1-c1cc(F)c(O)c(F)c1            µM               =       4.1
 5  O=c1c2scnc2nc(SCc2c(F)cc(F)cc2F)n1-c1cc(F)c(O)nc1F            µM               =       6.4
 6  Cc1cc(Cl)ccc1CSc1nc2ncsc2c(=O)n1-c1cc(F)c(O)c(F)c1            µM               >       100
 7  O=c1c2scnc2nc(SCc2ccc(C(F)(F)F)cc2)n1-c1ccc(O)nc1            µM               =      86.8
 8  O=c1c2scnc2nc(SCc2ccc(C(F)(F)F)cc2F)n1-c1cnc(O)nc1            µM               >       100
 9  O=c1c2scnc2nc(SCc2c(F)cc(F)cc2F)n1-c1cc(F)c(O)cn1            µM               =       8.1
10  O=c1c2scnc2nc(SCc2c(F)cc(F)cc2F)n1-c1ccc(O)nc1            µM               >       100
11  O=c1c2scnc2nc(SCc2ccc(C(F)(F)F)cc2)n1-c1ccc(O)nn1            µM               >       100
12  O=c1c2scnc2nc(SCc2ccc(F)cc2F)n1-c1cnc(O)c(F)c1            µM               >       100
13  O=c1c2scnc2nc(SCc2ccc(F)cc2Br)n1-c1cnc(O)c(F)c1            µM               =      73.1
14  O=c1c2scnc2nc(SCc2ccc(Cl)cc2F)n1-c1cnc(O)c(F)c1            µM               =      39.9
15  O=c1c2scnc2nc(SCc2c(F)cc(F)cc2F)n1-c1ccc(O)cn1            µM               >       100
16  O=c1c2scnc2nc(SCc2ccc(C(F)(F)F)cc2F)n1-c1ccc(O)nn1            µM               =      83.4
17  O=c1c2scnc2nc(SCc2ccc(Cl)cc2)n1-c1cc(F)c(O)c(F)c1            µM               >       100
18  Cc1cc(F)ccc1CSc1nc2ncsc2c(=O)n1-c1cc(F)c(O)c(F)c1            µM               =       3.7
19  O=c1c2scnc2nc(SCc2c(F)cc(F)cc2F)n1-c1c(F)cc(O)cc1F            µM               =        16
20  O=c1c2scnc2nc(SCc2ccc(C(F)(F)F)cc2)n1-c1cnc(O)nc1            µM               >       100
21  O=c1c2scnc2nc(SCc2ccc(C(F)(F)F)cc2)n1-c1cc(F)c(O)c(F)c1            µM               >       100
22  O=c1c2scnc2nc(SCc2ccc(C(F)(F)F)cc2)n1-c1cnc(O)c(F)c1            µM               =        38
